Hello, the source for this data is patent US20230365592A1, in case you need it.

molecular target: human PAH with the R408W mutation (Homo sapiens, UniProt P00439, R408W); construct: expressed in transfected cells; experiment: Cell Based Phenylalanine Flux Assay; details: A375 cells expressing human R408W PAH; 24 hrs compound incubation; 13C-Tyrosine by LC-MS; average where tested multiple times; read-out: AC50
observed.property: AC50

>>> recorded_value("Cn1ccc(-c2nnc(C(=O)N3CCc4[nH]cnc4[C@H]3c3cc4c(OC(F)(F)F)cccn4n3)o2)n1 [Example 1702]")
"< 500 nM"
>>> recorded_value("Cn1nc(Cl)nc1C(=O)N1CCc2[nH]cnc2[C@H]1c1cc2cccc(C(F)(F)F)n2n1 [Example 1162]")
"< 500 nM"
>>> recorded_value("O=C(c1nnc(-c2cnn(S(=O)(=O)C3CC3)c2)o1)N1CCc2[nH]cnc2[C@H]1c1cc2c(F)cccn2n1 [Example 834]")
"500 to 1000 nM"
>>> recorded_value("Cc1cccn2nc([C@@H]3c4nc[nH]c4CCN3C(=O)c3nnc(-c4cnn(C(F)F)c4)o3)cc12 [Example 820]")
"< 500 nM"
>>> recorded_value("Cc1cccn2nc([C@@H]3c4nc[nH]c4CCN3C(=O)c3nnc(C4CC(F)(F)C4)o3)cc12 [Example 1598]")
"500 to 1000 nM"
>>> recorded_value("COc1ccc2c(C(=O)N3CCc4[nH]cnc4[C@H]3c3cc4cccc(C)n4n3)cnn2c1 [Example 1718]")
"500 to 1000 nM"
>>> recorded_value("CC(C)(F)c1nnc(C(=O)N2CCc3[nH]cnc3[C@@H]2c2cc3c(C(F)(F)F)cccn3n2)o1 [Example 951]")
"1000 to 5000 nM"

----------
target: human PAH with the R408W mutation (Homo sapiens, UniProt P00439, R408W); construct: expressed in transfected cells; assay: Cell Based Phenylalanine Flux Assay; conditions: A375 cells expressing human PAH R408W; 24 hrs compound incubation; 13C-Tyrosine by LC-MS; average where tested multiple times; read-out: AC50;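 further: after compound treatment, cells received sepiapterin plus isotope-labelled Phenylalanine for 4 hours, then labelled Tyrosine in the medium was quantified, 10-point 2-fold dilution series run in duplicate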
# Lookup of reported AC50 keyed by entry
observed.property: AC50

>>> recorded_value("Cc1cccn2nc([C@@H]3c4nc[nH]c4CCN3C(=O)c3cnc(C4CC4)o3)cc12 [Example 1918]")
"500 to 1000 nM"
>>> recorded_value("CC(F)(F)c1nnc(N2CCc3[nH]cnc3[C@H]2c2cc3cccc(Cl)n3n2)o1 [Example 2327]")
"1000 to 5000 nM"
>>> recorded_value("FC(F)(F)c1cccc2cc([C@@H]3c4nc[nH]c4CCN3c3nnc(-c4ccccn4)o3)nn12 [Example 2440]")
"1000 to 5000 nM"
>>> recorded_value("COc1cccn2nc([C@@H]3c4nc[nH]c4CCN3C(=O)c3nnc(-c4cnn(C(F)F)c4)o3)cc12 [Example 2446]")
"1000 to 5000 nM"

----------
Target: human PAH with the R408W mutation (Homo sapiens, UniProt P00439, R408W)
Construct: expressed in transfected cells
Sequence (P00439 1-452 R408W): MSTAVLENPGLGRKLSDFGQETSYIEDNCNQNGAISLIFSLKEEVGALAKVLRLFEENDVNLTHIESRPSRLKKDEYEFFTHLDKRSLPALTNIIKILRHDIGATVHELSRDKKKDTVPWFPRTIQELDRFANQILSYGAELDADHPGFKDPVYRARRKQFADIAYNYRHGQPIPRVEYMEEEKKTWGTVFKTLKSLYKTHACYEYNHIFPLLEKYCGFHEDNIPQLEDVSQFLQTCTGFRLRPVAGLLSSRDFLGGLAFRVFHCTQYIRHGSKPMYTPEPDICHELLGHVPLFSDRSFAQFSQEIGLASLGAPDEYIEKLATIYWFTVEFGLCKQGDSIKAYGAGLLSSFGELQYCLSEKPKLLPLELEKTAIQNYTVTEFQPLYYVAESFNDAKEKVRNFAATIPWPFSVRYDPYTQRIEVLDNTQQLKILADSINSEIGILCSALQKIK
Assay: Cell Based Phenylalanine Flux Assay
Conditions: A375 cells expressing human R408W PAH; 24 hrs compound incubation; 13C-Tyrosine by LC-MS; average where tested multiple times; read-out: AC50
# Lookup of reported AC50 keyed by entry
observed.property: AC50

>>> recorded_value("O=C(c1nnc(-c2ncccc2F)o1)N1CCc2[nH]cnc2[C@H]1c1cc2c(C(F)F)cccn2n1")
"< 500 nM"
>>> recorded_value("Cc1cccn2nc([C@@H]3c4nc[nH]c4CCN3C(=O)c3nnc(-c4ccn(C)n4)o3)cc12")
"< 500 nM"
>>> recorded_value("Cc1nc([C@@H](C)O)oc1C(=O)N1CCc2[nH]cnc2[C@@H]1c1cc2c(F)cccn2n1")
"1000 to 5000 nM"
>>> recorded_value("O=C(c1oc(C2(O)CC2)nc1C(F)F)N1CCc2[nH]cnc2[C@@H]1c1cc2c(C(F)(F)F)cccn2n1")
"1000 to 5000 nM"
>>> recorded_value("COc1cccn2nc([C@@H]3c4nc[nH]c4CCN3C(=O)c3nnc(-c4ccccn4)o3)cc12")
"500 to 1000 nM"
>>> recorded_value("Cc1nc(C(C)(C)F)oc1C(=O)N1CCc2[nH]cnc2[C@@H]1c1cc2cccc(C)n2n1")
"1000 to 5000 nM"
>>> recorded_value("Cc1cccn2nc([C@H]3c4nc[nH]c4CCN3C(=O)c3nnc(-c4ccnn4C)o3)cc12")
"> 5000 nM"
>>> recorded_value("C[C@H](O)c1nc(C(F)F)c(C(=O)N2CCc3[nH]cnc3[C@@H]2c2cc3cccc(Cl)n3n2)o1")
"1000 to 5000 nM"
>>> recorded_value("Cc1cccc2cc([C@H]3c4nc[nH]c4CCN3C(=O)c3nnc(C4CCC4)o3)nn12")
"1000 to 5000 nM"
>>> recorded_value("CC1(c2nnc(C(=O)N3CCc4[nH]cnc4[C@@H]3c3cc4c(F)cccn4n3)o2)CC1")
"> 5000 nM"
>>> recorded_value("Cn1cc(-c2nnc(C(=O)N3CCc4[nH]cnc4[C@@H]3c3cc4cccc(C(F)F)n4n3)o2)cn1")
"> 5000 nM"
>>> recorded_value("O=C(c1nnc(-c2ccn(C(F)F)n2)o1)N1CCc2[nH]cnc2[C@H]1c1cc2cccc(Cl)n2n1")
"< 500 nM"
>>> recorded_value("Cc1c(-c2nnc(C(=O)N3CCc4[nH]cnc4[C@H]3c3cc4ccccn4n3)o2)cnn1C")
"< 500 nM"
>>> recorded_value("Cc1cccc(-c2nnc(C(=O)N3CCc4[nH]cnc4[C@@H]3c3cc4c(C(F)(F)F)cccn4n3)o2)n1")
"1000 to 5000 nM"
>>> recorded_value("Cc1cccc2cc([C@@H]3c4nc[nH]c4CCN3C(=O)c3cc(C(F)F)nn3C)nn12")
"< 500 nM"
